Biological target: T1, human TREM2 (triggering receptor expressed on myeloid cells 2) (human) (UniProt Q9NZC2)
T1 sequence (looked up): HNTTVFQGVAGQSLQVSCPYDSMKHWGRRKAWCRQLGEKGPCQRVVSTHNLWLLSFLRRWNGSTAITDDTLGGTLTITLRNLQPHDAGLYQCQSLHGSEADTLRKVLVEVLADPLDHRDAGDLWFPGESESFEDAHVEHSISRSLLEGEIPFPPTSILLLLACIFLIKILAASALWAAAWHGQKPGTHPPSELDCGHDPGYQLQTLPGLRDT
Assay: 2nd screen, 2 nM Ab
The binders listed here are annotated with their Binding Signal (fold over 6E7 parental antibody).
State the answer as a number, implicitly in fold.

# count of solved cases: 2
6E7 antibody affinity modulation variant V89 (antibody, V domains shown) VH: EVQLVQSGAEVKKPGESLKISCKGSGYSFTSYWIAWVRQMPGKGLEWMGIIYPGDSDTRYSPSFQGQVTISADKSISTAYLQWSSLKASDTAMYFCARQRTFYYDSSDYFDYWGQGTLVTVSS VL: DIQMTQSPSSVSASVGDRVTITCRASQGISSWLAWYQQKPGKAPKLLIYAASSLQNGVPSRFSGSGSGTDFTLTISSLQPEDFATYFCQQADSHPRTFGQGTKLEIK : 0.94
6E7 antibody affinity modulation variant V16 (antibody, V domains shown) VH: EVQLVQSGAEVKKPGESLKISCKGSGYSMTSYWIAWVRQMPGKGLEWMGIIYPGDGDTRYSPSFQGQVTISADKSISTAYLQWSSLKASDTAMYFCARSRTFYYDSSDYFDYWGQGTLVTVSS VL: DIQMTQSPSSVSASVGDRVTITCRASQGISSWLAWYQQKPGKAPKLLIYAASNLQNGVPSRFSGSGSGTDFTLTISSLQPEDFATYFCQQADSFPRTFGQGTKLEIK : 3.57

Req: What Binding Signal (fold over 6E7 parental antibody) value was documented for this binder, 6E7 antibody affinity modulation variant V88 (antibody, V domains shown) VH: EVQLVQSGAEVKKPGESLKISCKGSGYSFGSYWIAWVRQMPGKGLEWMGIIYPGDSDTRYSPSFQGQVTISADKSISTAYLQWSSLKASDTAMYFCARQRTFYYDSSDYFDYWGQGTLVTVSS VL: DIQMTQSPSSVSASVGDRVTITCRASQGISSWLAWYQQKPGKAPKLLIYAASRLQRGVPSRFSGSGSGTDFTLTISSLQPEDFATYFCQQADSSPRTFGQGTKLEIK ?
Resp: 5.57
